Attribution: paper PMC11480844

B1: H2-Kb / B5 (parent)
chain 1: TQTVSQSDAHVTVFEGDSVELRCNYSYGGSIYLSWYIQHHGHGLQFLLKYYSGNPVVQGVNGFEAEFSKSDSSFHLRKASVHWSDSAVYFCAVSLYQGGRALIFGTGTTVSVSP
chain 2: EAGVTQSPRYAVLQEGQAVSFWCDPISGHDTLYWYQQPRDQGPQLLVYFRDEAVIDNSQLPSDRFSAVRPKGTNSTLKIQSAKQGDTATYLCASSFAGGARAEQFFGPGTRLTVL
chain 3: not shown
chain 4: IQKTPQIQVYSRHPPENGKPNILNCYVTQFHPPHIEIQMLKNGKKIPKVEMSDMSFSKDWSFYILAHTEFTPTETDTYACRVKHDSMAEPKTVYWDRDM
chain 5: SIINFEKL

Variants of: B1
ASSAY_COMMENT: % of reporter cells activated (NFAT-GFP), raw; further: test concentration or dose not given here
PARTICULARS: with B5; scale: % of reporter cells activated
The threshold is inclusive: ratio to parent of exactly 1 counts as TRUE; values below receive FALSE.

[
  {
    "MUTATIONS": "chain 5 N4W",
    "GROUP": "FALSE"
  },
  {
    "MUTATIONS": "chain 5 I2W",
    "GROUP": "TRUE"
  },
  {
    "MUTATIONS": "chain 5 N4F",
    "GROUP": "TRUE"
  },
  {
    "MUTATIONS": "chain 5 I3W",
    "GROUP": "TRUE"
  },
  {
    "MUTATIONS": "chain 5 E6V",
    "GROUP": "FALSE"
  },
  {
    "MUTATIONS": "chain 5 I3V",
    "GROUP": "TRUE"
  },
  {
    "MUTATIONS": "chain 5 I2R",
    "GROUP": "FALSE"
  },
  {
    "MUTATIONS": "chain 5 E6P",
    "GROUP": "TRUE"
  },
  {
    "MUTATIONS": "chain 5 S1M",
    "GROUP": "TRUE"
  },
  {
    "MUTATIONS": "chain 5 L8A",
    "GROUP": "TRUE"
  },
  {
    "MUTATIONS": "chain 5 L8Y",
    "GROUP": "FALSE"
  },
  {
    "MUTATIONS": "chain 5 I3L",
    "GROUP": "FALSE"
  },
  {
    "MUTATIONS": "chain 5 N4V",
    "GROUP": "FALSE"
  },
  {
    "MUTATIONS": "chain 5 F5Y",
    "GROUP": "TRUE"
  }
]
